Hi! I'm sharing some pIC50 results obtained with BRD2 (His-Brd2(60-472)) (Homo sapiens (Human), UniProt P25440).
Sequence (P25440 60-472): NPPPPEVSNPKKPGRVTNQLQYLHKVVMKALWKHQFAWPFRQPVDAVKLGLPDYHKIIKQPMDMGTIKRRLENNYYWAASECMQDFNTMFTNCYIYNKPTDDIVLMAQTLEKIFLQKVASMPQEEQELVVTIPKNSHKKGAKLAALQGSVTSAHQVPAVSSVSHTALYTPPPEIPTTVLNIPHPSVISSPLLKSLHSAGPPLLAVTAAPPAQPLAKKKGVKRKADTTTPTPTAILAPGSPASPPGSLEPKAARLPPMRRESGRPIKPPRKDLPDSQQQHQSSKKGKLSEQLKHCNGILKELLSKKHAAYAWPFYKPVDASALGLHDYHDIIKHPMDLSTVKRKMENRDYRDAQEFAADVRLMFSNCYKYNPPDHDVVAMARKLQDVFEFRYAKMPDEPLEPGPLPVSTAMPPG
pIC50: −log10 of the molar value.
Measured property: pIC50

Compound | Result number
COc1ccc(-c2nc3c(n2C(C)C)C(c2ccc(Cl)cc2)N(c2cc(OC)c4nnn(C)c4c2)C3=O)cn1 (stereo not shown) | 7.00
COc1cc(N2C(=O)c3nc(C4=CCOCC4)n(C(C)C)c3C2c2ccc(Cl)cc2)cn2c(C)nnc12 (stereo not shown) | 6.66
CCn1c(-c2cccnc2OC)nc2c1C(=O)N(c1cc(C)c(=O)n(C)c1)[C@@H]2c1ccc(Cl)cc1 | 7.81
COc1ncccc1-c1nc2c(n1C(C)C)C(c1ccc(Cl)cc1)N(c1cc(C)c3nnn(C)c3c1)C2=O (racemic) | 7.28
